# credit: ChEMBL document CHEMBL6109070

- Target: DPP-4 (dipeptidyl peptidase 4) (Homo sapiens, UniProt P27487)
- Sequence (P27487 whole entry): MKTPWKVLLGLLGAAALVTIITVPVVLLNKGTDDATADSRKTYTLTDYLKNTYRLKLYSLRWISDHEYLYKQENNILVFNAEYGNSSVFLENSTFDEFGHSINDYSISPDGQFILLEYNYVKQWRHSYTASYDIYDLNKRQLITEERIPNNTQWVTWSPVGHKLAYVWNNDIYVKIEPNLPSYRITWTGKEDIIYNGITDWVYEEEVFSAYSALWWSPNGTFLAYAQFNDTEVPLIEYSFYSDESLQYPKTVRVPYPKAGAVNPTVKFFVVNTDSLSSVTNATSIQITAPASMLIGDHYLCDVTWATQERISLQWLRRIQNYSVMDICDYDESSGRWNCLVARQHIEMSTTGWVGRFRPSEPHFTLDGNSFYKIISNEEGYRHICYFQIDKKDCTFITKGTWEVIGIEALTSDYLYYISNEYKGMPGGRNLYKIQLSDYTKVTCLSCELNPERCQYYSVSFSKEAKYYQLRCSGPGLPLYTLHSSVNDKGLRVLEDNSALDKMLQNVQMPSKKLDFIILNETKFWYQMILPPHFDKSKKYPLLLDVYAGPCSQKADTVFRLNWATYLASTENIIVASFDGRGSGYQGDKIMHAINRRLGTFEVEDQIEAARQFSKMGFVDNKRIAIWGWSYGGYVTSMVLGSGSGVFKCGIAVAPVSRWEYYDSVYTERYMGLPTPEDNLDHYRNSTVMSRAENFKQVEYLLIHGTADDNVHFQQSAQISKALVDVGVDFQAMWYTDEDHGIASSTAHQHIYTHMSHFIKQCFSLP
- Experiment Description: Stability of compound assessed as DPP-4 (unknown origin)-mediated drug degradation by measuring half life measured for 10 mins by RP-HPLC analysis
- Format: ADME
Mark condition met only for half-life values smaller than 4 h; exact matches and larger values are condition not met.

Take a look at these entries with their results.
>>> group_label("CCCCCCCCCCCCCCCC(=O)N[C@H](C(=O)N[C@H](Cc1ccc(O)cc1)C(=O)N[C@@H](CCC(N)=O)C(=O)N[C@@H](CCC(=O)O)C(=O)N[C@@H](CC(C)C)C(=O)N[C@@H](CCCNC(=N)N)C(=O)N[C@@H](CCCNC(=N)N)C(=O)N[C@H](C(=O)NCC(=O)N[C@@H](CC(=O)O)C(=O)N[C@@H](CCC(=O)O)C(=O)N[C@@H](Cc1ccccc1)C(=O)O)[C@@H](C)CC)[C@@H](C)CC")
"condition not met"
>>> group_label("CCCCCCCCCCCCCCCC(=O)N[C@H](C(=O)N[C@@H](C)C(=O)N[C@@H](CCC(N)=O)C(=O)N[C@@H](CCC(=O)O)C(=O)N[C@@H](CC(C)C)C(=O)N[C@@H](CCCNC(=N)N)C(=O)N[C@@H](CCCNC(=N)N)C(=O)N[C@H](C(=O)NCC(=O)N[C@@H](CC(=O)O)C(=O)N[C@@H](CCC(=O)O)C(=O)N[C@@H](Cc1ccccc1)C(=O)O)[C@@H](C)CC)[C@@H](C)CC")
"condition met"
>>> group_label("CCCCCCCCCCCCCCCC(=O)N[C@H](C(=O)N[C@@H](C)C(=O)N[C@H](CCC(N)=O)C(=O)N[C@@H](CCC(=O)O)C(=O)N[C@@H](CC(C)C)C(=O)N[C@@H](CCCNC(=N)N)C(=O)N[C@@H](CCCNC(=N)N)C(=O)N[C@H](C(=O)NCC(=O)N[C@@H](CC(=O)O)C(=O)N[C@@H](CCC(=O)O)C(=O)N[C@@H](Cc1ccccc1)C(=O)O)[C@@H](C)CC)[C@@H](C)CC")
"condition met"
>>> group_label("CCCCCCCCCCCCCCCC(=O)N[C@H](C(=O)N[C@@H](C)C(=O)N[C@@H](CCC(N)=O)C(=O)N[C@@H](CCC(=O)O)C(=O)N[C@@H](CC(C)C)C(=O)N[C@@H](CCCNC(=N)N)C(=O)N[C@@H](CCCNC(=N)N)C(=O)N[C@@H](C(=O)NCC(=O)N[C@@H](CC(=O)O)C(=O)N[C@@H](CCC(=O)O)C(=O)N[C@@H](Cc1ccccc1)C(=O)O)[C@@H](C)CC)[C@@H](C)CC")
"condition met"
>>> group_label("CCCCCCCCCCCCCCCC(=O)N[C@H](C(=O)N[C@@H](C(=O)N[C@@H](CCC(N)=O)C(=O)N[C@@H](CCC(=O)O)C(=O)N[C@@H](CC(C)C)C(=O)N[C@@H](CCCNC(=N)N)C(=O)N[C@@H](CCCNC(=N)N)C(=O)N[C@H](C(=O)NCC(=O)N[C@@H](CC(=O)O)C(=O)N[C@@H](CCC(=O)O)C(=O)N[C@@H](Cc1ccccc1)C(=O)O)[C@@H](C)CC)C(C)C)[C@@H](C)CC")
"condition not met"

Now turn to the next compound.
IN: Dear reviewer, please state whether CCCCCCCCCCCCCCCC(=O)N[C@H](C(=O)N[C@H](C)C(=O)N[C@@H](CCC(N)=O)C(=O)N[C@@H](CCC(=O)O)C(=O)N[C@@H](CC(C)C)C(=O)N[C@@H](CCCNC(=N)N)C(=O)N[C@@H](CCCNC(=N)N)C(=O)N[C@H](C(=O)NCC(=O)N[C@@H](CC(=O)O)C(=O)N[C@@H](CCC(=O)O)C(=O)N[C@@H](Cc1ccccc1)C(=O)O)[C@@H](C)CC)[C@@H](C)CC has half-life strictly beneath 4 h.
OUT: condition met
